Cited source for all entries: ChEMBL document CHEMBL1201862

Tgt: Ataxin-2 (Homo sapiens) (UniProt Q99700)
Sequence (Q99700 whole entry): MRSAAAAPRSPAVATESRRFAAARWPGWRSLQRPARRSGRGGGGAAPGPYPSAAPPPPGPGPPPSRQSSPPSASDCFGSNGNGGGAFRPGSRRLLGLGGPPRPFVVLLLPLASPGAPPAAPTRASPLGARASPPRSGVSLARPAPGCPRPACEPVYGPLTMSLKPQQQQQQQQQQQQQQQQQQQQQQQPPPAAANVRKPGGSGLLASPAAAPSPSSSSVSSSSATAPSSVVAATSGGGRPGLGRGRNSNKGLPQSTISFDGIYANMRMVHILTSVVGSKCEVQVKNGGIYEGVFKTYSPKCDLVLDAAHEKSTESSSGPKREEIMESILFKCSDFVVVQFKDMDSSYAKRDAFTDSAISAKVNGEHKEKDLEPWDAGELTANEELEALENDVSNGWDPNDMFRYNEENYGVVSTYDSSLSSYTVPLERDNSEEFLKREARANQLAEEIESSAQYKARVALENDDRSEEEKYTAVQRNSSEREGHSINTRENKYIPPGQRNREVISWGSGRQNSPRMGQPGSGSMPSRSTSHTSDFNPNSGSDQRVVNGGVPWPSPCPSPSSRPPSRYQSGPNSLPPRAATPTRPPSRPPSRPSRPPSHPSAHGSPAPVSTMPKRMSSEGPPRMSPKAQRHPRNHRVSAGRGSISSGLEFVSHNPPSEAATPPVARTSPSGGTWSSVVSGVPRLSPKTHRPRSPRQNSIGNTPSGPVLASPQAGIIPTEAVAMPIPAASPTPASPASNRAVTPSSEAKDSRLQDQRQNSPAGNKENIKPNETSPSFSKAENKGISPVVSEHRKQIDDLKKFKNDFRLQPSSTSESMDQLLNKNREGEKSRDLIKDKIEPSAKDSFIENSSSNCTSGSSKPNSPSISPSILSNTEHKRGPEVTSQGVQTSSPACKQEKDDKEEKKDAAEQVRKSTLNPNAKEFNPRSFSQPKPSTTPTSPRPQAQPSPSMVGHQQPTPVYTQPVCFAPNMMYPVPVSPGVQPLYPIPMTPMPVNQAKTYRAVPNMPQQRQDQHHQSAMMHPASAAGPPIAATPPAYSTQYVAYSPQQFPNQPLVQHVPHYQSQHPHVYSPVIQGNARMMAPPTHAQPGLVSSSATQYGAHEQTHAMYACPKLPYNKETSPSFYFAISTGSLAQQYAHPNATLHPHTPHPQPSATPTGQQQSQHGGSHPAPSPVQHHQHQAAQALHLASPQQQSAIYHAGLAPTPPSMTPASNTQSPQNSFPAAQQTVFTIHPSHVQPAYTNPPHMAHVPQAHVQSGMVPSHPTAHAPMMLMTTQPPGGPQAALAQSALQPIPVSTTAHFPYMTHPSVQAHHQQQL
Test Details: qHTS for Inhibitors of ATXN expression.
Assay type: functional
In all, about 400,000 compounds went through this assay and about 2,100 (0.53%) were called active. Roughly 14% stayed inconclusive and do not appear here. No rule for the calls is given here. Only a selection was taken, and actives are over-represented in it overall.
Labels: active, inactive

Record Smiles	Cat
CCNc1cccc2c1C(=O)N(C)C2=O	inactive
C[C@@H]1CN([C@@H](C)CO)S(=O)(=O)c2ccc(Br)cc2O[C@H]1CN(C)C(=O)Nc1ccc(C(F)(F)F)cc1	active
CN(C)CCCNC(=O)c1cc2sc3ccccc3c2s1	inactive
COc1cc(C)c2sc3ccccc3c(=O)c2c1NCCN(C)C	active
O=C1c2ccccc2C(=O)c2c(NCCCN(CCO)CCO)cccc21	active
O=C1c2cccc(NCCCNCCO)c2C(=O)c2cccc(NCCCNCCO)c21	active

###

Tgt: Ataxin-2 (Homo sapiens) (UniProt Q99700)
Test Details: qHTS for Inhibitors of ATXN expression.
Assay type: functional
About 2,100 (0.53%) of roughly 400,000 compounds were called active. Inconclusive results (about 14%) are left out. The sample holds actives, similar compounds and a random draw of the others, so the mix is not that of the screen.
Observable: Potency

Compound	Tgt	Observable	Measured
CCN1C=C(C(=O)OC)C(c2cccc(OC)c2OC)C(C(=O)OC)=C1	Ataxin-2 (Homo sapiens) (UniProt Q99700)	Potency	inactive
O=C(CSc1ccccn1)N1CCN(c2ncc(C(F)(F)F)cc2Cl)CC1	Ataxin-2 (Homo sapiens) (UniProt Q99700)	Potency	inactive
Cc1ccc(-n2c(C)cc(/C=N/NC(=O)Cn3c4ccccc4c(=O)c4ccccc43)c2C)cc1	Ataxin-2 (Homo sapiens) (UniProt Q99700)	Potency	inactive
CCOC(O)=C(C(C)=N)C1CC(=O)NC1=O (stereo not drawn)	Ataxin-2 (Homo sapiens) (UniProt Q99700)	Potency	inactive
CCCC(O)(CCC)C(=O)NN(C(=O)CCl)c1cccc(C)c1	Ataxin-2 (Homo sapiens) (UniProt Q99700)	Potency	21.2 µM (active)
Cc1ccc(S(=O)(=O)c2c(C)nn(C(C)(C)C)c2OC(=O)C(C)C)cc1	Ataxin-2 (Homo sapiens) (UniProt Q99700)	Potency	inactive
Cc1ccc(-n2c(=O)c(C#N)cc3c(=O)n4ccccc4nc32)cc1	Ataxin-2 (Homo sapiens) (UniProt Q99700)	Potency	inactive
CCN(CC)CCCNC(=O)CSc1nc(C)cc(C)n1	Ataxin-2 (Homo sapiens) (UniProt Q99700)	Potency	inactive
CCCN(CCC)C(=O)CSc1c2c(nc3ccc(Cl)cc13)CCCC2	Ataxin-2 (Homo sapiens) (UniProt Q99700)	Potency	39.8 µM (active)
CC1=CC2C(C(O)CC3(C)C2CC(C)C32OCOC23COCO3)C2(C)CC(C=O)=C(O)C=C12 (stereo not drawn)	Ataxin-2 (Homo sapiens) (UniProt Q99700)	Potency	15 µM (active)
Cc1cc2cc(C#N)c(NCCN=C(S)NCCCN3CCOCC3)nc2cc1C	Ataxin-2 (Homo sapiens) (UniProt Q99700)	Potency	inactive
CCOc1nc2cnccc2n(CC(=O)Nc2ccc(C)c(C)c2)c1=O	Ataxin-2 (Homo sapiens) (UniProt Q99700)	Potency	inactive
O=C(Cc1cc(O)nc(O)n1)NCCN1CCOCC1	Ataxin-2 (Homo sapiens) (UniProt Q99700)	Potency	inactive
CC1CCCC(NC(=O)c2ccc3c(SCC(=O)O)c4c(nc3c2)CCC4)C1C (stereo not drawn)	Ataxin-2 (Homo sapiens) (UniProt Q99700)	Potency	inactive
Cc1cc(-c2ccc(Br)s2)nc(-n2cccc2)n1	Ataxin-2 (Homo sapiens) (UniProt Q99700)	Potency	inactive
O=c1nc2n(CCO)c3ccccc3cc-2c(=O)[nH]1	Ataxin-2 (Homo sapiens) (UniProt Q99700)	Potency	inactive
CCNc1nc(NCC)n2c(SC(C(=O)Nc3cc(Cl)cc(Cl)c3)c3ccccc3)nnc2n1 (stereo not drawn)	Ataxin-2 (Homo sapiens) (UniProt Q99700)	Potency	39.8 µM (active)
O=C(Cc1cccs1)Nc1ccc(F)c(S(=O)(=O)N2CCOCC2)c1	Ataxin-2 (Homo sapiens) (UniProt Q99700)	Potency	inactive
Cc1ccc(-n2c(Cl)c(Cl)nc(Cl)c2=O)cc1	Ataxin-2 (Homo sapiens) (UniProt Q99700)	Potency	4.74 µM (active)
Cc1ccc(-n2c3nc(=O)n(C)c(=O)c-3cc3ccccc32)cc1	Ataxin-2 (Homo sapiens) (UniProt Q99700)	Potency	inactive
CCCCCCCN(C(=O)CCl)c1cccc(C)c1	Ataxin-2 (Homo sapiens) (UniProt Q99700)	Potency	14.1 µM (active)
O=C(NNc1ccccn1)C(c1ccccc1)c1ccccc1	Ataxin-2 (Homo sapiens) (UniProt Q99700)	Potency	inactive
COc1ccc2cc(-c3cc(C(=O)OCC(=O)NC4CCS(=O)(=O)C4)c4ccccc4n3)ccc2c1 (stereo not drawn)	Ataxin-2 (Homo sapiens) (UniProt Q99700)	Potency	inactive

###

Tgt: Ataxin-2 (Homo sapiens)
Test Details: qHTS for Inhibitors of ATXN expression.
Format: functional
The whole screen tested about 400,000 compounds, of which about 2,100 (0.53%) were called active. Another 14% or so got no clear call; they are omitted. How the calls were made is not given here. Shown is part of a subset that was picked to be rich in actives.
Labels: t for active, f for inactive

Compound	Cat
Cc1cc(C)n(CCC(=O)Nc2cccc(F)c2)n1	f
O=C(CCCCCn1c(=S)[nH]c2ccc(N3CCOCC3)cc2c1=O)NCc1cccc(Cl)c1	f
COc1ccccc1NC(=O)/C=C/C(N)=O	t
C=CCn1nc([N+](=O)[O-])nc1Sc1cccc2cccnc12	t
CCN1CCC(O)(/C=C/c2ccc(C(C)C)cc2)C(C(=O)/C=C/c2ccc(C(C)C)cc2)C1 (stereo not drawn)	t
Cn1nc([N+](=O)[O-])nc1Sc1cccc2cccnc12	t
CN(C)CCNc1nc2sc3c(c2c(=O)n1CCc1ccccc1)CCCCC3	t
CC(=O)c1ccc(-c2ccc(C(=O)N(C)Cc3nc(O)c4ccccc4n3)o2)cc1	f
COc1ccc2[nH]c(SCC(=O)NC(C)c3ccccc3)nc2c1 (stereo not drawn)	f
CCC(/C=C1\Sc2ccc(OC)cc2N1CCO)=C\c1sc2ccc(OC)cc2[n+]1CCO	t
CCCCNC(=O)NNc1nc(Cl)cc(C)c1C#N	f
Fc1ccc(-n2c(S)nnc2-c2ccc3ccccc3n2)cc1Cl	f
COc1ccccc1/C=C/C(=O)OCC(=O)NCc1ccc2c(c1)OCO2	f
Cc1ccc(NNC2=C3N=NN=C3C=CC2=O)cc1	t
CC[N+]1(C)CCC(O)(/C=C/c2ccccc2)C(C(=O)/C=C/c2ccccc2)C1 (stereo not drawn)	t
O=C(c1cc2cc(Cl)ccc2[nH]1)N1CCc2ccccc2C1	f
C[C@]12c3[nH]c4ccc(Cl)cc4c3CCN1C(=O)[C@@H](CC(=O)NCc1cccc(C(F)(F)F)c1)C[C@@H]2C(=O)N1CCOCC1	t
Fc1cccc(CNCc2ccc3c(c2)OCO3)c1	f
CCN(CC)c1ccc(/C=N/NC(=O)c2cccc(S(=O)(=O)Nc3ccccc3OC)c2)c(O)c1	f
CC(C)(C)SCCNS(=O)(=O)c1ccc(C#N)cc1	f
COc1cc(OC)c2cc(C(=O)N/N=C/c3ccccc3O)[nH]c2c1	f
O=C(COC(=O)c1c2c(nc3ccccc13)/C(=C/c1ccco1)CC2)NC1CCCC1	f
Cc1nc(C/C(=N\N)c2ccc(O)cc2O)cs1	f
CN1CCc2c(sc3c2C(=O)NC(c2ccc(-c4ccc(Cl)cc4)o2)N3)C1 (stereo not drawn)	f
COc1ccc(C(=O)/C=C/c2ccc(N(C)C)cc2)c(OC)c1	f
CCOC(=O)c1cc2c(=O)n3ccccc3nc2n(Cc2ccco2)/c1=N/C(=O)c1ccc(OC)cc1	f
CC(Oc1cccc(Cl)c1)C(=O)Nc1nc(-c2ccccn2)cs1 (stereo not drawn)	t
O=C(CCC1CCCCC1)Nc1nncs1	f
Cc1nn(C)c(Sc2ccccn2)c1[N+](=O)[O-]	f
CCOc1ccccc1NC(=O)c1cc(SC)ccc1Cl	f
CCN(CC)c1ccc2cc(C(N)=O)c(=O)oc2c1	f
OC[C@@H]1[C@@H](c2ccc(Cl)cc2)C(c2cccc(Cl)c2)=NN1c1ccccc1	f
CCOc1ccccc1NC(=O)CN1C(=O)COc2ccccc21	f
COc1ccc(C(C)NCCC(c2ccc(OC(C)C)cc2)c2ccccc2OC)cc1 (stereo not drawn)	t
CC(OC(=O)Cn1cnc2c1c(=O)n(C)c(=O)n2C)C(=O)Nc1ccc(Cl)cc1 (stereo not drawn)	f
COc1ccc(CNCCC(c2ccc3c(c2)OCO3)c2ccccc2OC)cc1 (stereo not drawn)	t
CCC(C)n1c(=N)c(C(=O)NC2CCCCC2)cc2c(=O)n3ccccc3nc21 (stereo not drawn)	f
CCN1CCC(O)(/C=C/c2ccc(C)cc2)C(C(=O)/C=C/c2ccc(C)cc2)C1 (stereo not drawn)	t
O=C(CCCCCn1c(=S)[nH]c2ccc(N3CCOCC3)cc2c1=O)NCc1ccc(Cl)cc1	f
Nc1nc(N)c2cc(Sc3ccc(Cl)cc3)ccc2n1	t
O=C(Cc1cc(=O)oc2cc(O)ccc12)NCC1CCC(C(=O)O)CC1 (stereo not drawn)	f
CCOC(=O)c1c(C)[nH]c(C(=O)COC(=O)CCNS(=O)(=O)c2ccc(NC(C)=O)cc2)c1C	f
COCCCN=C(S)NCCNc1nc2c(C)c(C)ccc2cc1C#N	f
